The following compounds are shown together with reported cell viability values.
- Tested on: NOMO1
- measurement.description: cell viability relative to DMSO control; higher = less cytotoxic
- assay.setup: RPMI 5 mM glucose + 10% FBS; 48 h; 0.0211 µM
Note: unit % is implicit; provide only the numeric part.

Completed entries (count: 4):
compound	cell viability (%)
CC1(C)CC(O)CC(C)(C)N1[O]	116
CC[C@@]1(O)C[C@H](O[C@H]2C[C@H](N(C)C)[C@H](O[C@H]3C[C@H](O)[C@H](O[C@H]4CCC(=O)[C@H](C)O4)[C@H](C)O3)[C@H](C)O2)c2c(cc3c(c2O)C(=O)c2c(O)cccc2C3=O)[C@H]1C(=O)OC	97.6
CCN(C)C(=O)Oc1cccc([C@H](C)N(C)C)c1	105
COc1cc(-c2nn(C3CCC(N4CCN(C(C)=O)CC4)CC3)c3ncnc(N)c23)ccc1NC(=O)c1cc2ccccc2n1C (stereo not drawn)	109

Query: Looking for the measured cell viability of `COc1cc(OC)c(NC(=O)Nc2cc(C)on2)cc1Cl` , can you help?
Result: 92.7

Query: # query: cell viability of entry `N\C1=N\C2=C(N=C[N]2COC(CO)CO)C(=O)N1`
Result: 118

Query: Returns the measured cell viability for the input compound. Input: `CNCC(O)C(O)C(O)C(O)CO.O=C(O)c1ccc(-c2cc3cccnc3c(-c3ccc4nonc4c3)n2)cc1`
Result: 118

Query: Any idea what cell viability was measured for `OC1=CC=C(C=C1)\C2=C\C(=O)C3=C(O2)C=C(O)C=C3O` ?
Result: 108

###

- Test system: SEM cells
- measurement.description: cell viability relative to DMSO control; higher = less cytotoxic
- assay.setup: RPMI 5 mM glucose + 10% dialyzed FBS; 48 h; 0.569 µM
Items are presented alongside their recorded cell viability.
Answer with the value and then the unit.

compound	cell viability
COC1=CC=C(C=C1)C2CC(=N/N2C3=CC=C(C=C3)[S+](N)([O-])=O)\C4=CC=CC=C4 (centres undefined)	63.3%
OC1=CC=C(C=C1)\C2=C\C(=O)C3=C(O2)C=C(O)C=C3O	108%
NC\1=N\C(=O)N(\C=C1)[C@H]\2[C@H](O)[C@H](O)C(=C2F)\CO	92.2%
CCOC1=CC(=CC=C1C/2=N/[C@@](C)(C3=CC=C(Cl)C=C3)[C@](C)(N2C(=O)N4CCN(CC4)CC(=O)N5CCOCC5)C6=CC=C(Cl)C=C6)C(C)(C)C	116%
CCCCCCCCc1ccc(CCC(N)(CO)CO)cc1	115%
COc1cc(N[S+](=O)([O-])c2ccc(N)cc2)nc(OC)n1	92.7%
CN(C)c1ccc(Nc2nc(N)n(C(=O)c3c(F)cccc3F)n2)cc1	95.5%
Cc1c(C(=O)Nc2cccc(C(F)(F)F)c2)cc(-c2ccccc2)n1CCCN1CCOCC1	109%

Query: Which cell viability value is on record for COc1ccnc(C[S+]([O-])c2nc3cc(OC(F)F)ccc3[nH]2)c1OC (centres undefined) ?
Result: 127%

###

- Tested on: P12-Ichikawa
- measurement.description: cell viability relative to DMSO control; higher = less cytotoxic
- assay.setup: RPMI 5 mM glucose + 10% FBS; 48 h; 15.4 µM
cell viability values for the compounds below.
State the answer as a number, implicitly in %.

Query: What measured cell viability goes with `COC1=CC2=C(C=C1OC)[C@H]3[C@@H](CO2)OC4=C(C=CC5=C4\C=C/C(C)(C)O5)C3=O` ?
Result: 46.5

Query: Can you look up the measured cell viability of CC(C)NCC(O)COc1ccc(CCOCC2CC2)cc1 (stereo not given) for me?
Result: 104

Query: Need cell viability, item `Cc1cc(Cl)ccc1OCCCC(=O)NO`
Result: 17.4

Query: Any idea what cell viability was measured for C[S+]([O-])c1ccc(-c2nc(-c3ccc(F)cc3)c(-c3ccncc3)[nH]2)cc1 (stereo not given) ?
Result: 3.17

Query: Which cell viability is listed for `O=C(NNC(=O)c1ccc(CN[S+](=O)([O-])c2ccc(F)c(Cl)c2)cc1)c1ccccc1` ?
Result: 114
